- TESTED_ON: human B-Raf (Homo sapiens, UniProt P15056)
- Construct: Flag; GST; made in house; host or cells: Sf9 insect cells (B-Raf); E. coli (MEK1-GST)
- Sequence (P15056 whole entry): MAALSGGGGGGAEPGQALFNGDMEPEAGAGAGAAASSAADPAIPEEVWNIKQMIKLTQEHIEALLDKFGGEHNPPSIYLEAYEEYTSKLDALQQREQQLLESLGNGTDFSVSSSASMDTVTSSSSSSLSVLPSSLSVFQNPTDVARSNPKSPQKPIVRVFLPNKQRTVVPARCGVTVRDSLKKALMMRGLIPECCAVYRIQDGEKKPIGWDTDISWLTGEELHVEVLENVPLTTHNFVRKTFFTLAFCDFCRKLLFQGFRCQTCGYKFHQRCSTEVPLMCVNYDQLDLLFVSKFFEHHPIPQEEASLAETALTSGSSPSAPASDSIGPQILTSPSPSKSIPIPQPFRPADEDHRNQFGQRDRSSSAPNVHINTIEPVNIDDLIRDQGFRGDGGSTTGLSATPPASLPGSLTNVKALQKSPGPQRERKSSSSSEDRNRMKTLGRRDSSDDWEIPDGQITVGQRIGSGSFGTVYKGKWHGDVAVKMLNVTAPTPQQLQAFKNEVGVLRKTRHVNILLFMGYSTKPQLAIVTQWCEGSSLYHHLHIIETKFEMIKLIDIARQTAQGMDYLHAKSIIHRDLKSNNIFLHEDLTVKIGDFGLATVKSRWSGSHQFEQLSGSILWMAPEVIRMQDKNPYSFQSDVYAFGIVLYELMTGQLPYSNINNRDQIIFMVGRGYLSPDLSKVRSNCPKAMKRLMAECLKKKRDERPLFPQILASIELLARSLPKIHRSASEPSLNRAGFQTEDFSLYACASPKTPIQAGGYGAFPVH
- EXPERIMENT: B-Raf Kinase to MEK1 ELISA
- Type: biochemical
- TEST_CONDITIONS: read-out: % Inhib./10 uM
ASSAY_METRIC: inhibition at 10 µM (%)
Answers are plain numbers, in %.

compound="O=C(Nc1cccc(-c2ccnc3c(-c4cccnc4)cnn23)c1)Nc1ccc(Cl)c(Cl)c1 [Example 175]" assay_metric="inhibition at 10 µM" unit_abbreviation=% readout_number=70

List inhibition at 10 µM for every entry below, keeping the order given.
1. O=C(Nc1cccc(-c2ccnc3c(-c4ccc(C(F)(F)F)cc4)cnn23)c1)c1cccc(C(F)(F)F)c1 [Example 292]
2. Cc1ccc(C(=O)Nc2cccc(-c3ccnc4c(C#N)c(N5CCNCC5)nn34)c2)cc1C(F)(F)F [Example 68]
3. CCOC(=O)c1cnn2c(-c3cccc(NC(=O)c4ccc(Cl)s4)c3)ccnc12 [Example 222]
4. CCOC(=O)c1cnn2c(-c3ccc(OC)c(NC(=O)c4cccc(C(F)(F)F)c4)c3)ccnc12 [Example 88]

[A]
26
45
43
14

----------
- TESTED_ON: human B-Raf (Homo sapiens, UniProt P15056)
- Construct: Flag; GST; made in house; host or cells: Sf9 insect cells (B-Raf); E. coli (MEK1-GST)
- EXPERIMENT: B-Raf Kinase to MEK1 ELISA
- Format: biochemical
Hi there, I'd appreciate the recorded IC50 for every entry that follows.
Numbers only, in nM.

Some compounds with recorded IC50:
test_smiles=N#Cc1ccccc1-c1cnn2c(-c3cccc(NC(=O)c4cccc(C(F)(F)F)c4)c3)ccnc12 assay_metric=IC50 unit_abbreviation=nM readout_number=7470
test_smiles=Cc1cnc2c(-c3cccnc3)cnn2c1-c1cccc(NC(=O)c2cccc(C(F)(F)F)c2)c1 assay_metric=IC50 unit_abbreviation=nM readout_number=650

Could you now look at the following compound, please?
[Q] Provide the documented IC50 with human B-Raf (Homo sapiens, UniProt P15056) as the system for O=C(Nc1cccc(-c2ccnc3c(-c4cnn(CCN5CCCC5)c4)cnn23)c1)c1cccc(C(F)(F)F)c1
[A] 393

----------
- TESTED_ON: human B-Raf (Homo sapiens, UniProt P15056)
- Construct: Flag; GST; made in house; host or cells: Sf9 insect cells (B-Raf); E. coli (MEK1-GST)
- EXPERIMENT: B-Raf Kinase to MEK1 ELISA
- Format: biochemical
- TEST_CONDITIONS: median; cpd concentrations from 10 μM to 30 nM in half log dilutions; read-out: Median IC50
ASSAY_METRIC: pIC50
One number for each entry, as −log10 of the molar value.

List pIC50 for every entry below, keeping the order given.
1. COc1ccc(C(=O)Nc2cccc(-c3ccnc4cc(N5CCOCC5)nn34)c2)cc1C(F)(F)F
2. O=C(Nc1cccc(-c2ccnc3c(-c4ccncc4)cnn23)c1)c1ccc(Cl)c(C(F)(F)F)c1
3. CN(C)CC(=O)Nc1ccc(-c2cnn3c(-c4cccc(NC(=O)c5cccc(C(F)(F)F)c5)c4)ccnc23)cc1

[A]
1. 6.66
2. 5.72
3. 7.31

----------
- TESTED_ON: human B-Raf (Homo sapiens)
- Construct: Flag; GST; made in house; host or cells: Sf9 insect cells (B-Raf); E. coli (MEK1-GST)
- EXPERIMENT: B-Raf Kinase to MEK1 ELISA
- Assay type: biochemical
- Description: TITLE: B-Raf Kinase to MEK1 ELISA PURPOSE: To discover B-Raf Kinase inhibitors that can inhibit growth of tumor cells which contain oncogenic forms of Receptor Tyrosine Kinases or K-Ras, or B-Raf kinase. […] B-Raf-1 is used to phosphorylate GST-MEK1. MEK1 phosphorylation is measured by a phospho-specific antibody (from Cell Signaling Technology, cat. #9121) that detects phosphorylation of two serine residues at positions 217 and 221 on MEK1. […] 11. Read plates in Wallac Victor model Plate Reader. […]
ASSAY_METRIC: pIC50
Numbers only, as −log10 of the molar value.

Some molecules with recorded pIC50:
test_smiles=Cc1ccc(C(=O)Nc2cccc(-c3ccnc4c(-c5cccnc5)cnn34)c2)cc1C(F)(F)F readout_number=7.15
test_smiles=O=C(Nc1cccc(-c2ccnc3c(-c4cccc(CO)c4)cnn23)c1)c1cccc(C(F)(F)F)c1 readout_number=6.84
test_smiles=O=C(Nc1cccc(-c2ccnc3cc(-c4ccncc4)nn23)c1)c1cccc(Cl)c1 readout_number=5.96

Could you now look at the following molecule, please?
[Q] Please look up its pIC50: COC(=O)c1ccc(-c2cnn3c(-c4cccc(NC(=O)c5cccc(C(F)(F)F)c5)c4)ccnc23)cc1
[A] 5.66

----------
- TESTED_ON: human B-Raf (Homo sapiens)
- Construct: Flag; GST; made in house; host or cells: Sf9 insect cells (B-Raf); E. coli (MEK1-GST)
- EXPERIMENT: B-Raf Kinase to MEK1 ELISA
- Type: biochemical
- TEST_CONDITIONS: read-out: % Inhib./10 uM
Binary classification by inhibition at 10 µM, with 70% as an inclusive lower bound for rule met; all other cases are rule not met.

molecule="CCOC(=O)c1cnn2c(-c3cccc(NC(=O)Nc4cccc(Cl)c4)c3)ccnc12 [Example 80]" category="rule not met"
molecule="CCOC(=O)c1c(C)nn2c(-c3cccc(NC(=O)c4ccc(C)c(C(F)(F)F)c4)c3)ccnc12 [Example 64]" category="rule not met"
molecule="Cc1cnc2c(Br)cnn2c1-c1cccc(NC(=O)c2cccc(C(F)(F)F)c2)c1 [Example 178]" category="rule not met"
molecule="O=C(Cc1nnn[nH]1)Nc1cccc(-c2cnn3c(-c4cccc(NC(=O)c5cccc(C(F)(F)F)c5)c4)ccnc23)c1 [Example 256]" category="rule met"
molecule="CCOC(=O)c1cnn2c(-c3cccc(NC(=O)c4cc5ccccc5s4)c3)ccnc12 [Example 5]" category="rule not met"

[Q] inhibition at 10 µM >= 70% for Nc1cccc(-c2cnn3c(-c4cccc(NC(=O)c5cccc(C(F)(F)F)c5)c4)ccnc23)c1 [Example 156] ?
[A] rule met

[Q] inhibition at 10 µM >= 70% for CC(O)c1cccc(-c2cnn3c(-c4cccc(NC(=O)c5cccc(C(F)(F)F)c5)c4)ccnc23)c1 (centres unmarked) [Example 304] ?
[A] rule met

----------
- TESTED_ON: human B-Raf (Homo sapiens, UniProt P15056)
- Construct: Flag; GST; made in house; host or cells: Sf9 insect cells (B-Raf); E. coli (MEK1-GST)
- EXPERIMENT: B-Raf Kinase to MEK1 ELISA
- Assay type: biochemical
- TEST_CONDITIONS: single point assay, 10 uM
Hi there, I'd appreciate the recorded % Inhib./10 uM for every entry that follows.
Answers are plain numbers, in %.

compound="O=C(Nc1cccc(-c2ccnc3cc(-c4ccnc(NCCN5CCC(O)CC5)c4)nn23)c1)c1cccc(C(F)(F)F)c1 [Example 263]" assay_metric="% Inhib./10 uM" readout_number=98
compound="O=C(Nc1cccc(-c2ccnc3cc(-c4ccnc(NCCCN5CCOCC5)c4)nn23)c1)c1cccc(C(F)(F)F)c1 [Example 258]" assay_metric="% Inhib./10 uM" readout_number=95
compound="O=C(Nc1cccc(-c2ccnc3cc(N4CCNCC4)nn23)c1)c1cccc(C(F)(F)F)c1 [Example 208]" assay_metric="% Inhib./10 uM" readout_number=54
compound="O=C(Nc1cccc(-c2ccnc3cc(-c4ccncc4)nn23)c1)Nc1ccc(Cl)c(C(F)(F)F)c1 [Example 133]" assay_metric="% Inhib./10 uM" readout_number=98

Could you now look at the following compound, please?
[Q] Please look up its % Inhib./10 uM: CN(C)CCNc1cc(-c2cc3nccc(-c4cccc(NC(=O)c5cccc(C(F)(F)F)c5)c4)n3n2)ccn1 [Example 266]
[A] 100

----------
- TESTED_ON: human B-Raf (Homo sapiens, UniProt P15056)
- Construct: Flag; GST; made in house; host or cells: Sf9 insect cells (B-Raf); E. coli (MEK1-GST)
- EXPERIMENT: B-Raf Kinase to MEK1 ELISA
- Format: biochemical
Hi there, I'd appreciate the recorded pIC50 for every entry that follows.
One number for each entry, as −log10 of the molar value.

List pIC50 for every entry below, keeping the order given.
1. O=C(Nc1cccc(-c2ccnc3cc(-c4ccnc(NCCCN5CCOCC5)c4)nn23)c1)c1cccc(C(F)(F)F)c1 [Example 258]
2. CCOC(=O)c1cnn2c(-c3cccc(NC(=O)Nc4ccc(C#N)c(C(F)(F)F)c4)c3)ccnc12 [Example 78]
3. CC(=O)c1ccc(-c2cnn3c(-c4cccc(NC(=O)c5cccc(C(F)(F)F)c5)c4)ccnc23)cc1 [Example 300]
4. NC(=O)c1cccc(-c2cnn3c(-c4cccc(NC(=O)c5cccc(C(F)(F)F)c5)c4)ccnc23)c1 [Example 271]
5. Cc1ccc(C(=O)Nc2cccc(-c3ccnc4c(-c5ccc(N)cc5)cnn34)c2)cc1C(F)(F)F [Example 180]
6. O=C(Nc1cccc(-c2ccnc3c(-c4ccnc(Cl)c4)cnn23)c1)c1cccc(C(F)(F)F)c1 [Example 301]
7. Nc1ccc(-c2cnn3c(-c4cccc(NC(=O)c5cccc(C(F)(F)F)c5)c4)ccnc23)cn1 [Example 278]
8. CC(=O)Nc1ccc(-c2cnn3c(-c4cccc(NC(=O)c5ccc(C)c(C(F)(F)F)c5)c4)ccnc23)cc1 [Example 184]

[A]
6.87
6.24
5.35
7.24
6.74
5.76
6.95
6.70
